All figures here come from the supplement of paper PMC6555819.

tested on: RXRa homodimer (NR concentration 180 nM); assay: PBM binding z-score (relative to random genomic background probes); higher = stronger binding; sequences stand for … in GC…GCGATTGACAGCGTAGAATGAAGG
Measured PBM binding z-score values are reported for all entries that follow.

Example entries and their recorded answers appear below.
{"columns": ["seq", "PBM binding z-score"],
 "data": [
  ["GCTAGCAGGCCATTTGGGTCACTCATTGACGGGC", 0.477],
  ["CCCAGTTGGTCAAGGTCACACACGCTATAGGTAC", 4.74],
  ["ATCTCTATGTAAAAGTTCAGTGAATCCCGAGGAT", 1.11],
  ["GGAACGAGGGCATTCGAGTTGATACCATGGCGAT", 0.823],
  ["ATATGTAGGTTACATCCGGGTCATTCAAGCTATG", 3.24],
  ["TCGAGTAGGTTCGTCGGGGCATTCAGCCAACATA", 0.365],
  ["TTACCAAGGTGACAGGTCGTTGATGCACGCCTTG", 1.61],
  ["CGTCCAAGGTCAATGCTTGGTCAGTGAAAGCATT", 4.89],
  ["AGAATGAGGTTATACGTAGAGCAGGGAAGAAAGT", 2.1],
  ["CTCGAAAGGTCGTGCTCATGTGAGTATACCAAAC", 5.19]
]}

Query: So what's the measured PBM binding z-score for this one? "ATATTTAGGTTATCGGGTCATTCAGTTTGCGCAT"
Result: 3.57

Query: # iterate: "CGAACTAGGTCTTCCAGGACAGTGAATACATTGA"
Result: -0.0434
